Taken from the nanobody polyreactivity screen of Harvey et al. (2022).

test.details: yeast display, Sf9 membrane polyspecificity reagent, FACS + sequencing; frameworks hold sequencing errors
measurement.label: polyreactivity (PSR sort gate)

[
  {
    "residues": "QVHLVESGGGLVQAGGSLRLSCSASGRTFPYNAMGWYRQSPGKERELVAAISWRGGSTYYADSVKGRFTISRDNAKNTVYLQMNSLKPEDTAVYYCNALYPVSYDHRGDYWGQGTQVTVSS",
    "measurement.label": "polyreactivity (PSR sort gate)",
    "result": "high polyreactivity"
  },
  {
    "residues": "QVQLVESGGGLVQAGGSLRLSCAASGFTFWYYVMGWYRQAPGKERELVAAITSSGDSTYYADSVKGRFTISRDNAKNTVYLQMNSLKPEDTAVYYCAAQRYPFERDYWGQCTQVTVSS",
    "measurement.label": "polyreactivity (PSR sort gate)",
    "result": "high polyreactivity"
  },
  {
    "residues": "QVQLVESGGGLVQAGGSLRLSCAASGLTFIVYAMGWYRPAPGKERELVADITWSGGSTYYADSLKGRFTISRDNAKNTVYLQMNSLKPEATAVYYCNRQSAKIMDYWGQGTQVTVSS",
    "measurement.label": "polyreactivity (PSR sort gate)",
    "result": "low polyreactivity"
  },
  {
    "residues": "QVQLVESGGGLVQAGGSLRLSCAASGFIFRRYVMGWYRQAPGKERELVAAISNGGGRTYYADSVKGRFTISRDNAKNTVYLQMNSQKPEDTAVYYCAAYPRGPLAPDYDYWGQGTQVSVSS",
    "measurement.label": "polyreactivity (PSR sort gate)",
    "result": "high polyreactivity"
  },
  {
    "residues": "QVQLVESGGGLVQAGGSLRLSCAASGRISFVNAMGWYRQAPGKERELVAAISRGGSTNYADSVKGRFTISRDNAKNTVYLQMNSLKPEDTAVYYCAAQGNNYVRHTYGYWGQGTQVTVSS",
    "measurement.label": "polyreactivity (PSR sort gate)",
    "result": "low polyreactivity"
  },
  {
    "residues": "QDQLVDSGGGLVQAGGSLRLSCAASGRIFGYNSMGWYRQAPGKERELVASISSDGRTYYADSVKGRFTISRDNAKNTVYLQMNSLKPEDTAVYYCAAKEWYFTTWYTYYERDYWGQGTQVTLSS",
    "measurement.label": "polyreactivity (PSR sort gate)",
    "result": "high polyreactivity"
  },
  {
    "residues": "QVQLVESAAGLVQAGGSLSLICAASGYIFATYAMGWYIQAPGTETELVAAITSGGITNYADSVKGRFTISRDNAKNTVYLQMNSLKPEDTAVYYCATGRRRYYFREYYYWGQGTQVTVSS",
    "measurement.label": "polyreactivity (PSR sort gate)",
    "result": "high polyreactivity"
  },
  {
    "residues": "QVQLVESGGGLVQAGCSLRLSCAASGFTFPIYAMGWYRQAPGKEREFVAAITASGDNTYYADSVKGRFTISRDNAKNTVYLQINSLKPEDTAVYYCAADWFVDWWEYDYWGQGTQVTVSS",
    "measurement.label": "polyreactivity (PSR sort gate)",
    "result": "low polyreactivity"
  }
]

Parameter requested: polyreactivity (PSR sort gate). Apply to each item below.
1. QVQLVESGGGLVQAGGSLRLSCAASGSTFRGYAMGSYRQAPGKETELVATITSGGSTNYADSVKGRFTISRDNAKNTVSLQMNSLKPEDTAVYYCNARWVPSYWKYFHANYGYWGQGTQVTVSS
2. QVQLVESGGGLVQAGGSLRLSCAASGSIFYHYAMGWYRQAPGKERELVATINWSGGSTYYADSVKGRFTISRDNAKNTVYLQMNSLKPEDTAVYYCYSDSAIGLYVSSTPYGYDYWGQGTQVTVSS

["high polyreactivity", "low polyreactivity"]

###

test.details: yeast display, Sf9 membrane polyspecificity reagent, FACS + sequencing; frameworks hold sequencing errors
measurement.label: polyreactivity (PSR sort gate)

[
  {
    "residues": "QVQLVESGGGLVQAGGSLRLSCASSGGTFISYAMGWYRQAPGKERELVAAISRGGSSTYYADSVKGRFTISRDNAKNTVYLQMNSLKPEDTAVYYCNKAYHRRDSEFGYWGQGTQVTVSS",
    "polyreactivity (PSR sort gate)": "high polyreactivity"
  },
  {
    "residues": "QVQLVESGGGLVQAGGSLRLSCAASGFTFRWYAMGWYRQAPGKETELVAAISRDGSTNYADSVKGRFTISRDNAKNTVYLQMNSLKPEDTAFYYCATDSYPWGRSTGWRKQKGYYWGQGTKVTVSS",
    "polyreactivity (PSR sort gate)": "high polyreactivity"
  },
  {
    "residues": "QVQLVESGGGLVQAGGSLRLSCAASGSILEIYAMGWYRQAPGKEREVVASISWDVSSTYYADSVKGRFTISRDNAKNTVYLQMNSLKPEDTAVYYCATSLVWGLYDWYYDLSAAFDYWGQGTQVTVSS",
    "polyreactivity (PSR sort gate)": "low polyreactivity"
  },
  {
    "residues": "QVQLVESGGGLVQAGGSLRLSCAASGFIFLSYGMGWYRPAPGKERELVASITSDGGSTYYADSVKGRFTISRDNAKNTVYLQMNSLKPEDTAVYYCAADSVSPWYYGWYYRYRGYGYWGQGTQVTVSS",
    "polyreactivity (PSR sort gate)": "low polyreactivity"
  },
  {
    "residues": "QVQLVESGGGLVQAGGSLRLSCAASGLTLRTNSMRLYIQAPGKERELVAAISRSGVRTYYAHSVKGRFTISRDNAKNTVYLQMNSLKPEDTAVYYCNAEFSPYPYDYWGQGTQVTVSS",
    "polyreactivity (PSR sort gate)": "high polyreactivity"
  },
  {
    "residues": "QVQLVESGGGLVQAGGSLRLSCADSGRTFYPNAMGWYRQAPGKERELVARIRQSGTSTYYADSVKGRFTISRDNAKNTVYLQMNSLKPEDTAVYYCAARYAVGYPPYRYYYWGQGTQVTVSS",
    "polyreactivity (PSR sort gate)": "high polyreactivity"
  },
  {
    "residues": "QVQLVESGGGLVQAGGSLRLSCAASGSIFVPYAMGWYRQAPGKERELVATITISGGSTYYADSVKGRFTISRDNAKNTVYLQMNSLKPEDTAVYYCAAETTASYYKRTDDYDYWGQGTQVTVSS",
    "polyreactivity (PSR sort gate)": "low polyreactivity"
  },
  {
    "residues": "QVQLVESGGGLVQAGGSLRLSCAASGFIFNKNAMGWYRQAPGKERELVAAITFGGGTTYYADSVKGRFTISRDNAKNTVYLQMNSLKPEDTAVYYCNAVYYWYKGDYWGQGTQVTVSS",
    "polyreactivity (PSR sort gate)": "high polyreactivity"
  }
]

Parameter requested: polyreactivity (PSR sort gate). Apply to each item below.
1. QVQLVESGGGLDQAGGSLRLSCAASGIILYRNGMGCYRQAPGKETELVAVISRRGGTYYADSVKGRFTISRDNAKNTVYLQVNSLKPEDTAVYYCAAYLSQKGNFRGGGDYWGQGTQVTVSS
2. QVQLVESGGGLVQAGGSLRLSCAASGRIFPTYTMGWYRQAPGKERELVAAIRRGGGRTYYADSVKGRFTISRDNAKNTVYLQMNSLKPEDTAVYYCNKDVYGYSRTGPRGYDYWGQGTQVTVSS

1: high polyreactivity; 2: high polyreactivity

###

test.details: yeast display, Sf9 membrane polyspecificity reagent, FACS + sequencing; frameworks hold sequencing errors

[
  {
    "residues": "QVQLVESGGGLVQAGGSLRLSCAASGSIFNSNAMGWYRQAPGKERELVATIRWSGGSTNYADSVKGRFTISRDNAKNTVYLQMNSLKPEDTAVYYCAVLPRGSNGMDYWGQGTQVTVSS",
    "polyreactivity (PSR sort gate)": "low polyreactivity"
  },
  {
    "residues": "QVQLVESGGGLVQAGGSLRLSCAASGYIFGVYVMGWYRQAPGKERELVAAITRGGGNTYYADSVKGRFTFSRDNAKNPVYLQMNSLKPEDTAVYYCAARSLKSLSRYYYWGQGTQVTVSS",
    "polyreactivity (PSR sort gate)": "high polyreactivity"
  },
  {
    "residues": "QVQLVESGGGLGQSGGSLRLSCAATGSTYKYNAMGWNRTAPGKERELVPAISRGGRTNYADSVKGRFTISRDNAKNTVYFQMNILKPEDTAVYYCAKDVAGLFHVGSLYYYWGQGTQVNVSS",
    "polyreactivity (PSR sort gate)": "low polyreactivity"
  },
  {
    "residues": "QVQLVESGGGLVQAGGSLRLSCAASGFIFYRYAMGWYRPAPGKERELVAAISRSGGTTYYADSVKGRFTISRDNAKNTVYLQMNSLKPEDTAVYYCNVKRGTIGGYYYWGQGTQVTVSS",
    "polyreactivity (PSR sort gate)": "high polyreactivity"
  }
]
